Test system: ACHN renal
measurement-description: NCI tumour cell line growth inhibition, 48 h
property-measured: TGI

molecule	target-or-system	property-measured	observed
COc1cc(CC(=O)c2cc3c(cc2-c2ccccc2)OCO3)cc(OC)c1OC	ACHN renal	TGI	> 100 µM
CCOC(=O)C1=C(C)N(c2ccc(Cl)cc2)C2(O)C=CC(Nc3ccc(Cl)cc3)=C3C(=O)N(c4ccccc4)C(=O)C312 (configuration not stated)	ACHN renal	TGI	20 µM
CN(C)CCOc1ccc2[nH]c(C(=O)N3CC(CCl)c4ccc(N)cc43)cc2c1 (configuration not stated)	ACHN renal	TGI	1.07 µM
Cc1csc2c(=O)n(COCc3ccccc3)c(=O)[nH]c12	ACHN renal	TGI	> 100 µM
Cn1c(=O)oc2cc(C(=S)N3CCCCC3)ccc21	ACHN renal	TGI	> 100 µM

Would you be so kind as to report TGI for each listed record?
1. COc1ccc(C=NCCCN=Cc2ccc(OC)cc2O)c(O)c1
2. C1C[S][Ge]2([S]CCS1)[S]CCSCC[S]2
3. COc1ccc2c(c1)CC1N(C)CCC13CCCCC23 (configuration not stated)
4. Cc1cc(C)c(C(=O)/C(=C/c2ccccc2)c2ccccc2)c(C)c1
5. N#CC(C#N)C1CN2CCC1CC2 (configuration not stated)
6. COC1/C=C/OC2(C)Oc3c(C)c(O)c4c(O)c(c(C=NOC(c5ccccc5)c5ccccc5)c(O)c4c3C2=O)NC(=O)/C(C)=C/C=C/C(C)C(O)C(C)C(O)C(C)C(OC(C)=O)C1C (configuration not stated)

Marked response:
1. > 100 µM
2. > 100 µM
3. > 100 µM
4. > 100 µM
5. > 100 µM
6. 2.73 µM

====

Tested on: UACC-62 melanoma
measurement-description: NCI tumour cell line growth inhibition, 48 h
property-measured: TGI

compound	TGI
CC(=O)OC12OC(C)(C3C(=O)N(c4ccccc4)C(=O)C31)N(c1ccccc1)C2=O (stereo not given)	> 100 µM
Cc1cc(Cl)ccc1Nc1nc2c(s1)C(=O)c1ccccc1C2=O	7.41 µM
COc1cccc(/C=N/NC(=O)CN(C)C)c1O	> 100 µM

Would you be so kind as to report TGI for each listed record?
1. COc1ccc(Nc2ncccc2C(=O)NCc2cn(Cc3cccc(Oc4ccccc4)c3)nn2)c(OC)c1
2. COc1c(C)c(C/C=C(\C)CCCCO)c(OC)c2ccccc12

Marked response:
1. > 29.6 µM
2. > 100 µM

====

Consider the following compounds; for each one, report its TGI.
System: 786-0 renal
measurement-description: NCI tumour cell line growth inhibition, 48 h

compound	TGI
C=CC(=C)CCC(Br)C(C)(C)Cl (centres undefined)	> 100 µM
O=C(CC(=O)N1N=C(c2ccccc2)C(N=Nc2ccccc2Cl)C1=O)Nc1ccccc1Cl (centres undefined)	49.6 µM
CCOC(=O)[C@H](CO)Nc1c(O)c2c(c(O)c1Cl)C(=O)C=CC2=O	> 10 µM
O=C(c1ccccc1)c1c2n(c3c1cc(O)c1ccccc13)CCN2	31.2 µM
Cn1c2c(c3ccccc31)CCN(CCCN1CCN(c3ccccc3)CC1)C2=O	39.1 µM
NNc1ncnc2cccc(Cl)c12	> 100 µM
O=C(NCCCc1cn[nH]c(=O)n1)c1cccc2nc3ccccc3nc12	> 100 µM
O=C(Nc1nc(-c2ccccc2Cl)cs1)c1cc(-c2ccc(Cl)cc2)nc2ccc(Cl)cc12	20 µM
COc1ccc(N2C(=O)C3C=CC(n4[nH]c(=O)n(Cc5ccccc5)c4=O)CC3C2=O)cc1 (centres undefined)	> 100 µM
O=C(NCCC1CN(S(=O)(=O)C(F)(F)F)c2ccccc21)OCc1ccccc1 (centres undefined)	> 100 µM

Would you be so kind as to report TGI for each listed record?
1. COC(=O)Cc1nn2c(nc1=O)sc1ccc3ccccc3c12
2. c1ccc(N2N=NC3C4CC(C5c6ccccc6C45)C32)cc1 (centres undefined)
3. CP(=O)(O)C(N)c1ccccc1 (centres undefined)

Marked response:
1: > 100 µM; 2: > 100 µM; 3: > 100 µM
